The measured values listed here are drawn from patent US20080119515A1.

# pIC50 per entry
- system: ZAP-70 (Homo sapiens, UniProt P43403)
- Sequence (P43403 1-619): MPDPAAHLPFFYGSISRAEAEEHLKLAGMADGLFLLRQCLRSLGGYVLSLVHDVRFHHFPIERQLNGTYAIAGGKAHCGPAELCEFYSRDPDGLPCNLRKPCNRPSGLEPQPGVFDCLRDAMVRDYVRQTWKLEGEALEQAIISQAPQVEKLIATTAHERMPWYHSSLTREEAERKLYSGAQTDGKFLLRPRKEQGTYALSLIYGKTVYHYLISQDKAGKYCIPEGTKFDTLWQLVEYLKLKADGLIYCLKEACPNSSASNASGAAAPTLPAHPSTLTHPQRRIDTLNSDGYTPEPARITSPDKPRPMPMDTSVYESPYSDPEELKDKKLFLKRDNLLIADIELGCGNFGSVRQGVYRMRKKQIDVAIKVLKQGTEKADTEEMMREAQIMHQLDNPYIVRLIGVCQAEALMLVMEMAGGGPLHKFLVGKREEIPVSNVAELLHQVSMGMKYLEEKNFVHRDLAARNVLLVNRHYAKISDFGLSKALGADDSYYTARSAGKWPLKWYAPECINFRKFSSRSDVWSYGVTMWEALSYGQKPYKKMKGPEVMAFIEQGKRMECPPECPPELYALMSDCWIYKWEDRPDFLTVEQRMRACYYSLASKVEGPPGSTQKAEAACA
- method: DELFIA assay (ZAP-70 kinase, phosphorylation of biotinylated poly(glu,tyr))
- Format: biochemical
- conditions used: ZAP-70 DELFIA, class symbols; read-out: Activity (IC50 in vitro)
pIC50: −log10 of the molar value.

Below, each entry is followed by its recorded pIC50 result.
INSERT INTO assay_data (compound, metric, observed_value) VALUES
  ('CCCCCc1ccc(CCc2cc(C(=O)N3CCC[C@H]3CN3CCCC3)c3cc(-c4ccc5c(c4)OCO5)ccc3n2)cc1 [Compound 398]', 'pIC50', '> 6.00'),
  ('O=C(c1cc(N2CCOCC2)nc2ccc(-c3ccc4c(c3)OCO4)cc12)N1CCC[C@H]1CN1CCCC1 [Compound 62]', 'pIC50', '5.00 to 6.00'),
  ('N#Cc1ccc(-c2ccc3nc(/C=C/c4ccc(Cl)cc4)cc(C(=O)N4CCC[C@H]4CN4CCCC4)c3c2)cc1 [Compound 387]', 'pIC50', '5.00 to 6.00');

# next compound below
**Query** Write pIC50 of C[C@H](CNc1cc(C(=O)N2CCC[C@H]2CN2CCCC2)c2cc(-c3ccc(C#N)cc3)ccc2n1)c1ccccc1 [Compound 187] ; system used: ZAP-70 (Homo sapiens, UniProt P43403)
**Result** < 5.00

---

- system: ZAP-70 (Homo sapiens)
- method: DELFIA assay (ZAP-70 kinase, phosphorylation of biotinylated poly(glu,tyr))
- Format: biochemical
- conditions used: ZAP-70 DELFIA, class symbols; read-out: Activity (IC50 in vitro)
metric: IC50

**Query** Retrieve IC50 measured for O=C(c1cc(N2CCCc3ccccc32)nc2ccc(-c3ccc4c(c3)OCO4)cc12)N1CCC[C@H]1CN1CCCC1 and print it.
**Result** < 1000 nM

**Query** Retrieve IC50 measured for C[C@@H](Nc1cc(C(=O)N2CCC[C@H]2CN2CCCC2)c2cc(-c3ccc4c(c3)OCO4)ccc2n1)c1ccc(Cl)cc1 and print it.
**Result** < 1000 nM

**Query** Retrieve IC50 measured for O=C(c1cc(NCc2ccc(C(F)(F)F)cc2)nc2ccc(-c3ccc(Cl)cc3)cc12)N1CCC[C@H]1CN1CCCC1 and print it.
**Result** < 1000 nM

**Query** Retrieve IC50 measured for O=C(c1cc(NCc2ccc(C(F)(F)F)cc2)nc2ccc(-c3cc(Cl)cc(Cl)c3)cc12)N1CCC[C@H]1CN1CCCC1 and print it.
**Result** < 1000 nM

---

- system: ZAP-70 (Homo sapiens, UniProt P43403)
- method: DELFIA assay (ZAP-70 kinase, phosphorylation of biotinylated poly(glu,tyr))
- Assay type: biochemical
- conditions used: ZAP-70 DELFIA, class symbols; read-out: Activity (IC50 in vitro)
pIC50: −log10 of the molar value.
metric: pIC50

**Query** Retrieve pIC50 measured for N#Cc1ccc(-c2ccc3nc(NC4Cc5ccccc5C4)cc(C(=O)N4CCC[C@H]4CN4CCCC4)c3c2)cc1 [Compound 155] and print it.
**Result** < 5.00

**Query** Retrieve pIC50 measured for N#Cc1ccc(-c2ccc3nc(NCC4(c5ccc(Cl)cc5)CC4)cc(C(=O)N4CCC[C@H]4CN4CCCC4)c3c2)cc1 [Compound 260] and print it.
**Result** < 5.00

**Query** Retrieve pIC50 measured for O=C(c1cc(NCc2ccccc2)nc2ccccc12)N1CCC[C@H]1CN1CCCC1 [Compound 14] and print it.
**Result** < 5.00

**Query** Retrieve pIC50 measured for O=C(c1cc(NCc2ccc(C(F)(F)F)cc2)nc2ccc(C#Cc3cccc(C(F)(F)F)c3)cc12)N1CCC[C@H]1CN1CCCC1 [Compound 284] and print it.
**Result** > 6.00

**Query** Retrieve pIC50 measured for O=C(c1cc(/C=C/c2ccc(Cl)cc2)nc2ccc(-c3ccc4c(c3)OCO4)cc12)N1CCC[C@H]1CN1CCCC1 [Compound 132] and print it.
**Result** 5.00 to 6.00

**Query** Retrieve pIC50 measured for O=C(c1cc(Cl)nc2ccccc12)N1CCC[C@H]1CN1CCCC1 [Compound 3] and print it.
**Result** < 5.00

**Query** Retrieve pIC50 measured for O=C(c1cc(CC(O)c2ccc(C(F)(F)F)cc2)nc2ccc(-c3ccc4c(c3)OCO4)cc12)N1CCC[C@H]1CN1CCCC1 (stereo partly shown) [Compound 436] and print it.
**Result** > 6.00

---

- system: ZAP-70 (Homo sapiens)
- method: DELFIA assay (ZAP-70 kinase, phosphorylation of biotinylated poly(glu,tyr))
- Type: biochemical
- conditions used: ZAP-70 DELFIA, class symbols; read-out: Activity (IC50 in vitro)
pIC50: −log10 of the molar value.
# pIC50 per entry

INSERT INTO measurements (structure_smiles_string, system, metric, observed_value) VALUES
  ('N#Cc1ccc(-c2ccc3nc(CCc4ccc(F)cc4)cc(C(=O)N4CCC[C@H]4CN4CCCC4)c3c2)cc1', 'ZAP-70 (Homo sapiens)', 'pIC50', '5.00 to 6.00'),
  ('O=C(c1cc(NCCN2CCOCC2)nc2ccc(-c3ccc4c(c3)OCO4)cc12)N1CCC[C@H]1CN1CCCC1', 'ZAP-70 (Homo sapiens)', 'pIC50', '< 5.00'),
  ('Clc1cc(N2CCC[C@H]2CN2CCCC2)nc2ccc(-c3ccc4c(c3)OCO4)cc12', 'ZAP-70 (Homo sapiens)', 'pIC50', '5.00 to 6.00'),
  ('CN(CCC#N)c1cc(C(=O)N2CCC[C@H]2CN2CCCC2)c2cc(-c3ccc4c(c3)OCO4)ccc2n1', 'ZAP-70 (Homo sapiens)', 'pIC50', '5.00 to 6.00'),
  ('O=C(c1cc(Nc2ccc(Oc3ccccc3)cc2)nc2ccc(-c3ccc4c(c3)OCO4)cc12)N1CCC[C@H]1CN1CCCC1', 'ZAP-70 (Homo sapiens)', 'pIC50', '> 6.00');

**Query** Retrieve pIC50 measured for N#Cc1ccc(-c2ccc3nc(N(CCCO)Cc4ccccc4)cc(C(=O)N4CCC[C@H]4CN4CCCC4)c3c2)cc1 and print it.
**Result** < 5.00

**Query** Retrieve pIC50 measured for CC(C)N(C)C[C@@H]1CCCN1C(=O)c1cc(NCc2ccccc2)nc2ccc(-c3ccc4c(c3)OCO4)cc12 and print it.
**Result** < 5.00

---

- system: ZAP-70 (Homo sapiens)
- method: DELFIA assay (ZAP-70 kinase, phosphorylation of biotinylated poly(glu,tyr))
- Format: biochemical
- conditions used: ZAP-70 DELFIA, class symbols; read-out: Activity (IC50 in vitro)
- Protocol: Before initiation of kinase reactions, compounds were pre-incubated with ZAP-70. […] The amount of phosphate transferred to biotinylated poly(glu,tyr) was measured using the Dissociation Enhanced Lanthanide Fluorescence Immuno-assay (DELFIA) from Perkin Elmer according to manufacturers protocol. […] Free antibody was removed with six washes, Europium was dissociated from the antibody, and Europium fluorescence was measured at using an excitation wavelength of 340 nm and an emission wavelength of 615 nm.
pIC50: −log10 of the molar value.
# pIC50 per entry

Below, each entry is followed by its recorded pIC50 result.
INSERT INTO assay_data (compound, system, metric, observed_value) VALUES
  ('O=C(c1cc(NCc2ccc(C(F)(F)F)cc2)nc2ccc(CCc3ccccc3)cc12)N1CCC[C@H]1CN1CCCC1 [Compound 285]', 'ZAP-70 (Homo sapiens)', 'pIC50', '5.00 to 6.00'),
  ('O=C(c1cc(NCc2ccc(F)c(Cl)c2)nc2ccc(-c3ccc4c(c3)OCO4)cc12)N1CCC[C@H]1CN1CCCC1 [Compound 40]', 'ZAP-70 (Homo sapiens)', 'pIC50', '> 6.00'),
  ('CN(Cc1cccc2ccccc12)c1cc(C(=O)N2CCC[C@H]2CN2CCCC2)c2cc(-c3ccc(C#N)cc3)ccc2n1 [Compound 246]', 'ZAP-70 (Homo sapiens)', 'pIC50', '< 5.00'),
  ('CN(Cc1ccccc1)c1cc(C(=O)N2CCC[C@H]2CN2CCCC2)cc(-c2ccc3c(c2)OCO3)n1 [Compound 276]', 'ZAP-70 (Homo sapiens)', 'pIC50', '< 5.00'),
  ('O=C(c1cc(NCc2ccc(C(F)(F)F)cc2)nc2ccc(-c3ccccc3Cl)cc12)N1CCC[C@H]1CN1CCCC1 [Compound 347]', 'ZAP-70 (Homo sapiens)', 'pIC50', '< 5.00'),
  ('Clc1cc(CN2CCC[C@H]2CN2CCCC2)c2cc(-c3ccc4c(c3)OCO4)ccc2n1 [Compound 93]', 'ZAP-70 (Homo sapiens)', 'pIC50', '< 5.00');

**Query** Retrieve pIC50 measured for Cc1ccc(CNc2cc(C(=O)N3CCC[C@H]3CN3CCCC3)c3cc(-c4ccc(C#N)cc4)ccc3n2)c(C)c1 [Compound 224] and print it.
**Result** < 5.00

**Query** Retrieve pIC50 measured for N#Cc1ccc(-c2ccc3nc(NCc4cc(F)cc(C(F)(F)F)c4)cc(C(=O)N4CCC[C@H]4CN4CCCC4)c3c2)cc1 [Compound 195] and print it.
**Result** < 5.00

**Query** Retrieve pIC50 measured for CC[C@@H](Nc1cc(C(=O)N2CCC[C@H]2CN2CCCC2)c2cc(-c3ccc(C#N)cc3)ccc2n1)c1ccccc1 [Compound 184] and print it.
**Result** < 5.00

**Query** Retrieve pIC50 measured for N#Cc1ccc(-c2ccc3nc(NCc4ccc(OC(F)F)cc4)cc(C(=O)N4CCC[C@H]4CN4CCCC4)c3c2)cc1 [Compound 233] and print it.
**Result** < 5.00

**Query** Retrieve pIC50 measured for CCC(Nc1cc(C(=O)N2CCC[C@H]2CN2CCCC2)c2cc(-c3ccc4c(c3)OCO4)ccc2n1)c1ccccc1 (some centres unmarked) [Compound 43] and print it.
**Result** > 6.00

**Query** Retrieve pIC50 measured for CSc1ccccc1CNc1cc(C(=O)N2CCC[C@H]2CN2CCCC2)c2cc(-c3ccc(C#N)cc3)ccc2n1 [Compound 228] and print it.
**Result** < 5.00

**Query** Retrieve pIC50 measured for O=C(c1cc(NCc2ccc(C(F)(F)F)cc2)nc2ccc(-c3ccccn3)cc12)N1CCC[C@H]1CN1CCCC1 [Compound 333] and print it.
**Result** < 5.00

**Query** Retrieve pIC50 measured for N#Cc1ccc(-c2ccc3nc(NCc4cccc(F)c4)cc(C(=O)N4CCC[C@H]4CN4CCCC4)c3c2)cc1 [Compound 161] and print it.
**Result** < 5.00
